These measurements were taken from ChEMBL document CHEMBL1135847.

# TARGET: Melanocyte-stimulating hormone receptor (Homo sapiens, UniProt Q01726)
# Sequence (Q01726 whole entry): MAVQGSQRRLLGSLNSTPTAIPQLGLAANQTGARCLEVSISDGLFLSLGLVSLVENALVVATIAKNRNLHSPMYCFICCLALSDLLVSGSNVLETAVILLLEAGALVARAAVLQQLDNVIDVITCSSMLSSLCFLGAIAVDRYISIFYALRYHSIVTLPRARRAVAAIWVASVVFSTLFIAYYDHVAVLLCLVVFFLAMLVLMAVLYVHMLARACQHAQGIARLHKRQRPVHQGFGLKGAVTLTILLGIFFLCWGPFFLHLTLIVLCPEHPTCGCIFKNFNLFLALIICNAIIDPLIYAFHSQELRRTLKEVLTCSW
# MEASUREMENT PROTOCOL: Agonist potency for human Melanocortin 1 receptor
# Assay type: functional
Here, each record is paired with measured EC50 data.
Give just the numeric value; nM need not be written.

Worked examples, 3 compounds total:
> print(dat)
                         structure.notation  measure.name  result.unit  experimental.result
1  CCCCN[C@@H](Cc1cnc[nH]1)C(=O)N[C@H](Cc1ccccc1)C(=O)N[C@@H](CCCCNCc1ccccc1)C(=O)N[C@@H](Cc1c[nH]c2ccccc12)C(=O)NCC(N)=O          EC50           nM                   85
2  CCCCN[C@@H](Cc1c[nH]cn1)C(=O)N[C@H](Cc1ccccc1)C(=O)N[C@@H](CCCCNC(C)C)C(=O)N[C@@H](Cc1c[nH]c2ccccc12)C(=O)NCC(N)=O          EC50           nM                  255
3  CCCCN[C@@H](Cc1cnc[nH]1)C(=O)N[C@H](Cc1ccccc1)C(=O)N[C@@H](CCCN(C)C)C(=O)N[C@@H](Cc1c[nH]c2ccccc12)C(=O)NCC(N)=O          EC50           nM                  350

Form: Entry = CCCCN[C@@H](Cc1c[nH]cn1)C(=O)N[C@H](Cc1ccccc1)C(=O)N[C@@H](Cc1c[nH]cn1)C(=O)N[C@@H](Cc1c[nH]c2ccccc12)C(=O)NCC(N)=O | System = Melanocyte-stimulating hormone receptor (Homo sapiens, UniProt Q01726) | EC50 = ____ 1700

----------
# MEASUREMENT PROTOCOL: pKa value was evaluated
# Format: physicochemical
# pKa values compiled below

> print(dat)
                         structure.notation  experimental.result
1  CCCCN[C@@H](Cc1cnc[nH]1)C(=O)N[C@H](Cc1ccccc1)C(=O)N[C@@H](CCC(=O)NC(=N)N)C(=O)N[C@@H](Cc1c[nH]c2ccccc12)C(=O)NCC(N)=O                   ~7

What measured pKa goes with CCCCN[C@@H](Cc1cnc[nH]1)C(=O)N[C@H](Cc1ccccc1)C(=O)N[C@@H](CCCNC(N)=NC#N)C(=O)N[C@@H](Cc1c[nH]c2ccccc12)C(=O)NCC(N)=O ? ~0

----------
# TARGET: UniProtKB P32245
# Sequence (P32245 whole entry): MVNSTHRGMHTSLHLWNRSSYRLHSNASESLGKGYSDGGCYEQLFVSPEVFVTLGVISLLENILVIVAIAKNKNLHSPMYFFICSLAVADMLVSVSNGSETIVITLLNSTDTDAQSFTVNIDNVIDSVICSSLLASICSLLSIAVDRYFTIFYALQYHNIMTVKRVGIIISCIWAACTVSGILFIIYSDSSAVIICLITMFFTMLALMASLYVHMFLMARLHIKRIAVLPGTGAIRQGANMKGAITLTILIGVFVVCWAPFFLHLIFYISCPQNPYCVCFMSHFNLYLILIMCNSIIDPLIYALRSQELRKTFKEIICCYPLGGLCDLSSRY
# MEASUREMENT PROTOCOL: Agonist potency towards human Melanocortin 4 receptor
pEC50: −log10 of the molar value.
Think of 6 as a floor: if pEC50 stands on it or above, it is 1 (yes); beneath it, 0 (no).

Reference set, count: 4
> print(dat)
                         structure.notation            target  assigned.category
1  CCCCN[C@@H](Cc1cnc[nH]1)C(=O)N[C@H](Cc1ccccc1)C(=O)N[C@@H](CCCN(C)C)C(=O)N[C@@H](Cc1c[nH]c2ccccc12)C(=O)NCC(N)=O  UniProtKB P32245             0 (no)
2  CCCCN[C@@H](Cc1cnc[nH]1)C(=O)N[C@H](Cc1ccccc1)C(=O)N[C@@H](CCCNC(N)=NC#N)C(=O)N[C@@H](Cc1c[nH]c2ccccc12)C(=O)NCC(N)=O  UniProtKB P32245            1 (yes)
3  CCCCN[C@@H](Cc1c[nH]cn1)C(=O)N[C@H](Cc1ccccc1)C(=O)N[C@@H](CCCN)C(=O)N[C@@H](Cc1c[nH]c2ccccc12)C(=O)NCC(N)=O  UniProtKB P32245             0 (no)
4  CCCCN[C@@H](Cc1cnc[nH]1)C(=O)N[C@H](Cc1ccccc1)C(=O)N[C@@H](CCCNC(=N)N)C(=O)N[C@@H](Cc1c[nH]c2ccccc12)C(=O)NCC(N)=O  UniProtKB P32245            1 (yes)

Check this compound for pEC50 at or above 6: CCCCN[C@@H](Cc1cnc[nH]1)C(=O)N[C@H](Cc1ccccc1)C(=O)N[C@@H](CCC(=O)NC(=N)N)C(=O)N[C@@H](Cc1c[nH]c2ccccc12)C(=O)NCC(N)=O 1 (yes)

In plain terms: is recorded pEC50 at least 6 for CCCCN[C@@H](Cc1cnc[nH]1)C(=O)N[C@H](Cc1ccccc1)C(=O)N[C@@H](CCCCNCc1ccccc1)C(=O)N[C@@H](Cc1c[nH]c2ccccc12)C(=O)NCC(N)=O ? 0 (no)

Check this compound for pEC50 at or above 6: CCCCN[C@@H](Cc1c[nH]cn1)C(=O)N[C@H](Cc1ccccc1)C(=O)N[C@@H](CCCCN(C)C)C(=O)N[C@@H](Cc1c[nH]c2ccccc12)C(=O)NCC(N)=O 0 (no)

----------
# TARGET: Melanocyte-stimulating hormone receptor (Homo sapiens)
# MEASUREMENT PROTOCOL: Agonist potency for human Melanocortin 1 receptor
MEASURE NAME: EC50 (nM)
Just the number please, in nM, no unit attached.

> print(dat)
                         structure.notation  experimental.result
1  CCCCN[C@@H](Cc1cnc[nH]1)C(=O)N[C@H](Cc1ccccc1)C(=O)N[C@@H](CCCNC(N)=NC#N)C(=O)N[C@@H](Cc1c[nH]c2ccccc12)C(=O)NCC(N)=O                   15

May I ask what EC50 has been recorded for CCCCN[C@@H](Cc1cnc[nH]1)C(=O)N[C@H](Cc1ccccc1)C(=O)N[C@@H](CCC(=O)NC(=N)N)C(=O)N[C@@H](Cc1c[nH]c2ccccc12)C(=O)NCC(N)=O ? 1

Fill blank: measured EC50 of the compound CCCCN[C@@H](Cc1c[nH]cn1)C(=O)N[C@H](Cc1ccccc1)C(=O)N[C@@H](CCCN)C(=O)N[C@@H](Cc1c[nH]c2ccccc12)C(=O)NCC(N)=O is ____. 900

----------
# TARGET: Melanocyte-stimulating hormone receptor (Homo sapiens)
# MEASUREMENT PROTOCOL: Agonist potency for human Melanocortin 1 receptor
MEASURE NAME: pEC50
When answering, recall that pEC50 equals minus log10 of the concentration in mol/L, and write that number alone.

// solved cases for pEC50 follow
> print(dat)
                         structure.notation  measure.name  experimental.result
1  CCCCN[C@@H](Cc1cnc[nH]1)C(=O)N[C@H](Cc1ccccc1)C(=O)N[C@@H](CCCNC(N)=O)C(=O)N[C@@H](Cc1c[nH]c2ccccc12)C(=O)NCC(N)=O         pEC50                 6.02
2  CCCCN[C@@H](Cc1c[nH]cn1)C(=O)N[C@H](Cc1ccccc1)C(=O)N[C@@H](CCCCN(C)C)C(=O)N[C@@H](Cc1c[nH]c2ccccc12)C(=O)NCC(N)=O         pEC50                 7.22

From here, focus on the item given below.
Query (molecule): CCCCN[C@@H](Cc1cnc[nH]1)C(=O)N[C@H](Cc1ccccc1)C(=O)N[C@@H](CCCNC(=N)N)C(=O)N[C@@H](Cc1c[nH]c2ccccc12)C(=O)NCC(N)=O ; field requested: pEC50 8.00
